# System: 695427-040-R-J1-PDC complex spheroid viability
# METHOD_SUMMARY: Anticancer human tumor 695427-040-R-J1-PDC patient-derived colon adenocarcinoma cell line growth inhibition [RAS]
# CONDITIONS: second compound 0.00949 µM; first compound 3.16 µM; stronger effect = lower value
viability, T/C for assorted compounds
Numeric only. Scale: %

CC1(O)CCCC1n1c(=O)c(C(F)F)cc2cnc(NC3CCN(S(C)(=O)=O)CC3)nc21 (centres undefined) + CCn1c(-c2cccnc2C(C)OC)c2c3cc(ccc31)N1CCOC(CC(NC(=O)C(C(C)C)N(C)C(=O)C3(F)CCN(C(=O)C#CC(C)(C)N(C)C)CC3)C(=O)N3CCCC(N3)C(=O)OCC(C)(C)C2)C1 : 124
CC1(O)CCCC1n1c(=O)c(C(F)F)cc2cnc(NC3CCN(S(C)(=O)=O)CC3)nc21 (centres undefined) + CCn1c(-c2cc(N3CCN(C)CC3)cnc2C(C)OC)c2c3cc(ccc31)-c1csc(n1)CC(NC(=O)C1CC1C)C(=O)N1CCCC(N1)C(=O)OCC(C)(C)C2 : 81.8
CC(Nc1ccc2c(c1)OCCn1cc(N3C(=O)OCC3C(F)F)nc1-2)C(N)=O (centres undefined) + CCn1c(-c2cccnc2C(C)OC)c2c3cc(ccc31)N1CCOC(CC(NC(=O)C(C(C)C)N(C)C(=O)C3(F)CCN(C(=O)C#CC(C)(C)N(C)C)CC3)C(=O)N3CCCC(N3)C(=O)OCC(C)(C)C2)C1 : 81.9

Ask | Please look up its viability, T/C: CC(C)NCC(C(=O)N1CCN(c2ncnc3c2C(C)CC3O)CC1)c1ccc(Cl)cc1 (centres undefined) + CCn1c(-c2cccnc2C(C)OC)c2c3cc(ccc31)N1CCOC(CC(NC(=O)C(C(C)C)N(C)C(=O)C3(F)CCN(C(=O)C#CC(C)(C)N(C)C)CC3)C(=O)N3CCCC(N3)C(=O)OCC(C)(C)C2)C1
Reply | 63.4

###

# System: 695427-040-R-J1-PDC complex spheroid viability
# METHOD_SUMMARY: Anticancer human tumor 695427-040-R-J1-PDC cell line growth inhibition [RAS];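 note: viability read after seven days of drug exposure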
# CONDITIONS: curve of first compound; second compound 0.03 µM
EXPERIMENTAL_ENDPOINT: IC50 (µM)
Numeric only. Scale: µM

CC(C)NCC(C(=O)N1CCN(c2ncnc3c2C(C)CC3O)CC1)c1ccc(Cl)cc1 (stereo not given) + CCn1c(-c2cc(N3CCN(C)CC3)cnc2C(C)OC)c2c3cc(ccc31)-c1csc(n1)CC(NC(=O)C1CC1C)C(=O)N1CCCC(N1)C(=O)OCC(C)(C)C2 : 4.05

Ask | // lookup IC50 | system=695427-040-R-J1-PDC complex spheroid viability | key= CC(=O)OC12COC1CC(O)C1(C)C(=O)C(O)C3=C(C)C(OC(=O)C(O)C(NC(=O)OC(C)(C)C)c4ccccc4)CC(O)(C(OC(=O)c4ccccc4)C21)C3(C)C (stereo not given) + CCn1c(-c2cc(N3CCN(C)CC3)cnc2C(C)OC)c2c3cc(ccc31)-c1csc(n1)CC(NC(=O)C1CC1C)C(=O)N1CCCC(N1)C(=O)OCC(C)(C)C2
Reply | 0.0363

Ask | // lookup IC50 | system=695427-040-R-J1-PDC complex spheroid viability | key= C=CC(=O)Nc1cc(Nc2nccc(-c3cn(C)c4ccccc34)n2)c(OC)cc1N(C)CCN(C)C + CCn1c(-c2cccnc2C(C)OC)c2c3cc(ccc31)N1CCOC(CC(NC(=O)C(C(C)C)N(C)C(=O)C3(F)CCN(C(=O)C#CC(C)(C)N(C)C)CC3)C(=O)N3CCCC(N3)C(=O)OCC(C)(C)C2)C1
Reply | 0.6

###

# Test system: 695427-040-R-J1-PDC complex spheroid viability
# METHOD_SUMMARY: Anticancer human tumor 695427-040-R-J1-PDC cell line growth inhibition [RAS];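 note: viability read after seven days of drug exposure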;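 for viability, T/C: 100% = DMSO vehicle control viability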
# CONDITIONS: second compound 0.00949 µM; first compound 0.000949 µM; stronger effect = lower value
EXPERIMENTAL_ENDPOINT: viability, T/C (%)
Numeric only. Scale: %

CC1(C)CCC(Nc2ncc(C(F)(F)F)c(-c3c[nH]c4c(P(C)(C)=O)c(C#N)ccc34)n2)CN1 (centres undefined) + CCn1c(-c2cc(N3CCN(C)CC3)cnc2C(C)OC)c2c3cc(ccc31)-c1csc(n1)CC(NC(=O)C1CC1C)C(=O)N1CCCC(N1)C(=O)OCC(C)(C)C2 : 71.4
CC1(C)CCC(Nc2ncc(C(F)(F)F)c(-c3c[nH]c4c(P(C)(C)=O)c(C#N)ccc34)n2)CN1 (centres undefined) + CCn1c(-c2cccnc2C(C)OC)c2c3cc(ccc31)N1CCOC(CC(NC(=O)C(C(C)C)N(C)C(=O)C3(F)CCN(C(=O)C#CC(C)(C)N(C)C)CC3)C(=O)N3CCCC(N3)C(=O)OCC(C)(C)C2)C1 : 108
CCc1c2c(nc3ccc(O)cc13)-c1cc3c(c(=O)n1C2)COC(=O)[C@]3(O)CC + CCn1c(-c2cc(N3CCN(C)CC3)cnc2C(C)OC)c2c3cc(ccc31)-c1csc(n1)CC(NC(=O)C1CC1C)C(=O)N1CCCC(N1)C(=O)OCC(C)(C)C2 : 82.3

Okay, now this compound:
Ask | Please look up its viability, T/C: CCc1c2c(nc3ccc(O)cc13)-c1cc3c(c(=O)n1C2)COC(=O)[C@]3(O)CC + CCn1c(-c2cccnc2C(C)OC)c2c3cc(ccc31)N1CCOC(CC(NC(=O)C(C(C)C)N(C)C(=O)C3(F)CCN(C(=O)C#CC(C)(C)N(C)C)CC3)C(=O)N3CCCC(N3)C(=O)OCC(C)(C)C2)C1
Reply | 98.3

###

# System: 695427-040-R-J1-PDC complex spheroid viability
# METHOD_SUMMARY: Anticancer human tumor 695427-040-R-J1-PDC cell line growth inhibition [RAS];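 note: viability read after seven days of drug exposure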;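 for viability, T/C: 100% = DMSO vehicle control viability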
# CONDITIONS: second compound 0.0949 µM; first compound 0.00316 µM; stronger effect = lower value
viability, T/C for assorted molecules
Numeric only. Scale: %

CC(C)n1nc(-c2ccc3oc(N)nc3c2)c2c(N)ncnc21 + CCn1c(-c2cccnc2C(C)OC)c2c3cc(ccc31)N1CCOC(CC(NC(=O)C(C(C)C)N(C)C(=O)C3(F)CCN(C(=O)C#CC(C)(C)N(C)C)CC3)C(=O)N3CCCC(N3)C(=O)OCC(C)(C)C2)C1 : 66.8
C=CC(=O)Nc1cc(Nc2nccc(-c3cn(C)c4ccccc34)n2)c(OC)cc1N(C)CCN(C)C + CCn1c(-c2cc(N3CCN(C)CC3)cnc2C(C)OC)c2c3cc(ccc31)-c1csc(n1)CC(NC(=O)C1CC1C)C(=O)N1CCCC(N1)C(=O)OCC(C)(C)C2 : 46.6
C=CC(=O)N1CCN(c2nc(OCC3CCCN3C)nc3c(F)c(-c4nc(N)cc(C)c4C(F)(F)F)c(Cl)cc23)C(C)C1 (centres undefined) + CCn1c(-c2cccnc2C(C)OC)c2c3cc(ccc31)N1CCOC(CC(NC(=O)C(C(C)C)N(C)C(=O)C3(F)CCN(C(=O)C#CC(C)(C)N(C)C)CC3)C(=O)N3CCCC(N3)C(=O)OCC(C)(C)C2)C1 : 96.9

Ask | Please look up its viability, T/C: Nc1ccn(C2OC(CO)C(O)C2(F)F)c(=O)n1 (centres undefined) + CCn1c(-c2cccnc2C(C)OC)c2c3cc(ccc31)N1CCOC(CC(NC(=O)C(C(C)C)N(C)C(=O)C3(F)CCN(C(=O)C#CC(C)(C)N(C)C)CC3)C(=O)N3CCCC(N3)C(=O)OCC(C)(C)C2)C1
Reply | 80

###

# System: 695427-040-R-J1-PDC complex spheroid viability
# METHOD_SUMMARY: Anticancer human tumor 695427-040-R-J1-PDC cell line growth inhibition [RAS];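 note: viability read after seven days of drug exposure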;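 for viability, T/C: 100% = DMSO vehicle control viability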
# CONDITIONS: second compound 0.3 µM; first compound 0.01 µM; stronger effect = lower value
Lab note: cut-off is 70%. Strictly less in viability, T/C is 1. Exactly 70% or more is -1.

Worked examples, 5 compounds total:
CCN1CCN(Cc2ccc(Nc3ncc(F)c(-c4cc(F)c5nc(C)n(C(C)C)c5c4)n3)nc2)CC1 + CCn1c(-c2cccnc2C(C)OC)c2c3cc(ccc31)N1CCOC(CC(NC(=O)C(C(C)C)N(C)C(=O)C3(F)CCN(C(=O)C#CC(C)(C)N(C)C)CC3)C(=O)N3CCCC(N3)C(=O)OCC(C)(C)C2)C1 : -1
Nc1ccn(C2OC(CO)C(O)C2(F)F)c(=O)n1 (stereo not drawn) + CCn1c(-c2cccnc2C(C)OC)c2c3cc(ccc31)N1CCOC(CC(NC(=O)C(C(C)C)N(C)C(=O)C3(F)CCN(C(=O)C#CC(C)(C)N(C)C)CC3)C(=O)N3CCCC(N3)C(=O)OCC(C)(C)C2)C1 : -1
C=CC(=O)Nc1cc(Nc2nccc(-c3cn(C)c4ccccc34)n2)c(OC)cc1N(C)CCN(C)C + CCn1c(-c2cccnc2C(C)OC)c2c3cc(ccc31)N1CCOC(CC(NC(=O)C(C(C)C)N(C)C(=O)C3(F)CCN(C(=O)C#CC(C)(C)N(C)C)CC3)C(=O)N3CCCC(N3)C(=O)OCC(C)(C)C2)C1 : -1
O=C(c1ccc(F)c(F)c1Nc1ccc(I)cc1F)N1CC(O)([C@@H]2CCCCN2)C1 + CCn1c(-c2cc(N3CCN(C)CC3)cnc2C(C)OC)c2c3cc(ccc31)-c1csc(n1)CC(NC(=O)C1CC1C)C(=O)N1CCCC(N1)C(=O)OCC(C)(C)C2 : 1
CC(C)n1nc(-c2ccc3oc(N)nc3c2)c2c(N)ncnc21 + CCn1c(-c2cccnc2C(C)OC)c2c3cc(ccc31)N1CCOC(CC(NC(=O)C(C(C)C)N(C)C(=O)C3(F)CCN(C(=O)C#CC(C)(C)N(C)C)CC3)C(=O)N3CCCC(N3)C(=O)OCC(C)(C)C2)C1 : -1

Ask | # TODO verify viability, T/C < 70% strictly for this compound: C=CC(=O)N1CCN(c2nc(OCC3CCCN3C)nc3c(F)c(-c4nc(N)cc(C)c4C(F)(F)F)c(Cl)cc23)C(C)C1 (stereo not drawn) + CCn1c(-c2cccnc2C(C)OC)c2c3cc(ccc31)N1CCOC(CC(NC(=O)C(C(C)C)N(C)C(=O)C3(F)CCN(C(=O)C#CC(C)(C)N(C)C)CC3)C(=O)N3CCCC(N3)C(=O)OCC(C)(C)C2)C1
Reply | -1

Ask | # TODO verify viability, T/C < 70% strictly for this compound: Nc1ccn(C2OC(CO)C(O)C2(F)F)c(=O)n1 (stereo not drawn) + CCn1c(-c2cc(N3CCN(C)CC3)cnc2C(C)OC)c2c3cc(ccc31)-c1csc(n1)CC(NC(=O)C1CC1C)C(=O)N1CCCC(N1)C(=O)OCC(C)(C)C2
Reply | 1

Ask | # TODO verify viability, T/C < 70% strictly for this compound: C=CC(=O)Nc1cc(Nc2nccc(-c3cn(C)c4ccccc34)n2)c(OC)cc1N(C)CCN(C)C + CCn1c(-c2cc(N3CCN(C)CC3)cnc2C(C)OC)c2c3cc(ccc31)-c1csc(n1)CC(NC(=O)C1CC1C)C(=O)N1CCCC(N1)C(=O)OCC(C)(C)C2
Reply | 1
